Numbers sourced from ChEMBL document CHEMBL1138016.

Test: Effective dose required towards 5-hydroxytryptamine 4 receptor as agonism in rat tunica muscularis mucosae (TMM)
// ED50 lookup, one value per entry
assay.endpoint: ED50

molecule	test.result
COc1cc(N)c(Cl)cc1C(=O)N[C@@H]1C2CC3CN(C2)CC31 (some centres undefined)	51.3 nM
COc1cc(N)c(Cl)cc1C(=O)NC1C2CC3CC1CN(C3)C2 (stereo in doubt; 9b)	262 nM
COc1cc(N)c(Cl)cc1C(=O)NC1C2CC3CC1CN(C3)C2 (stereo in doubt; 9a)	538 nM
COc1cc(N)c(Cl)cc1C(=O)NC1CCN(CCCOc2ccc(F)cc2)CC1OC (centres undefined) [CISAPRIDE]	54.7 nM

====

Experiment: Concentration required for inhibition of Dopamine receptor D1 using [3H]SCH-23,390 as the radioligand
This section presents compounds with their documented IC50 values.
assay.endpoint: IC50

compound	test.result
COc1cc(N)c(Cl)cc1C(=O)NCC1C2CC3CC1CN(C3)C2 (stereo in doubt; 9c)	> 10 µM
COc1cc(N)c(Cl)cc1C(=O)NC1CCN(CCCOc2ccc(F)cc2)CC1OC (centres undefined) [CISAPRIDE]	1.7 µM
COc1cc(N)c(Cl)cc1C(=O)NC1C2CC3CC1CN(C3)C2 (stereo in doubt; 9a)	> 10 µM
COc1cc(N)c(Cl)cc1C(=O)N[C@@H]1C2CC3CN(C2)CC31 (some centres undefined)	> 10 µM

====

Molecular target: Serotonin 3 (5-HT3) receptor (Rattus norvegicus, UniProt P35563+Q9JJ16)
Sequence (P35563 whole entry): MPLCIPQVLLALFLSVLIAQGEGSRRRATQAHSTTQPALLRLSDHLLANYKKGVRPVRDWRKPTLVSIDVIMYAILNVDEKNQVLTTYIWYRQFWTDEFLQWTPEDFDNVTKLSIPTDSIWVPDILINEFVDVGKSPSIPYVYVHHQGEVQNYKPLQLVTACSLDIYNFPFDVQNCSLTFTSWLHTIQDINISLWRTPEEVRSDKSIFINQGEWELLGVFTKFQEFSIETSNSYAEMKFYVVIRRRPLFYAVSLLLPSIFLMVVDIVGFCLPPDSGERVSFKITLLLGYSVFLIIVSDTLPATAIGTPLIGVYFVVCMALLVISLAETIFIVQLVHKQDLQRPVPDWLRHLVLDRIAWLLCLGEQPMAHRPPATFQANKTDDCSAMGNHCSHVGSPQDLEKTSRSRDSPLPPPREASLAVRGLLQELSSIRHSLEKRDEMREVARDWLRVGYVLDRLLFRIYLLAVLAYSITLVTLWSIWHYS
Sequence (Q9JJ16 whole entry): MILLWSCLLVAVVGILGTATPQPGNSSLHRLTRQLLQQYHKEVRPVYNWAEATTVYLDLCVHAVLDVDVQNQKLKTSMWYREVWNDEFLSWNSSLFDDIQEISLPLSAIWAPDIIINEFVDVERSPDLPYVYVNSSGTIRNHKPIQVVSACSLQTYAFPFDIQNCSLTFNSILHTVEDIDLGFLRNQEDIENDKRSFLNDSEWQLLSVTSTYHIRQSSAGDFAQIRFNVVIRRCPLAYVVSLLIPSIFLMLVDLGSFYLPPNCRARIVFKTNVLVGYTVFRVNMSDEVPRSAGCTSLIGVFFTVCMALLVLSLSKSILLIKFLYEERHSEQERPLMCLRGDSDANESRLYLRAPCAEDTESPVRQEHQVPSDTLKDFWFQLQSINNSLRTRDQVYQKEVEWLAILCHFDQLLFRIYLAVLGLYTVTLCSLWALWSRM
Experiment: Binding affinity towards 5-hydroxytryptamine 3 receptor using [3H]GR-65630 as the radioligand in male rat cortical tissue
pKi: −log10 of the molar value.
pKi for assorted compounds

compound	pKi
COc1cc(N)c(Cl)cc1C(=O)NCC1C2CC3CC1CN(C3)C2 (stereo in doubt; 9d)	6.84
COc1cc(N)c(Cl)cc1C(=O)NC1C2CC3CC1CN(C3)C2 (stereo in doubt; 9a)	6.47
COc1cc(N)c(Cl)cc1C(=O)NC1C2CC3CC1CN(C3)C2 (stereo in doubt; 9b)	8.05
COc1cc(N)c(Cl)cc1C(=O)NCC1C2CC3CC1CN(C3)C2 (stereo in doubt; 9c)	7.60

====

Biological target: Adrenergic receptor alpha-1 (Homo sapiens, UniProt P35348+P25100+P35368)
Test: Concentration required for inhibition of alpha-1 adrenergic receptor using [3H]prazosin as the radioligand
Type: protein assay
In this section, each of the molecules is paired with its reported IC50.
assay.endpoint: IC50

molecule	system.under.test	assay.endpoint	test.result
COc1cc(N)c(Cl)cc1C(=O)NC1C2CC3CC1CN(C3)C2 (stereo in doubt; 9a)	Adrenergic receptor alpha-1 (Homo sapiens, UniProt P35348+P25100+P35368)	IC50	> 10 µM
COc1cc(N)c(Cl)cc1C(=O)N[C@@H]1C2CC3CN(C2)CC31 (stereo not given in full)	Adrenergic receptor alpha-1 (Homo sapiens, UniProt P35348+P25100+P35368)	IC50	> 10 µM
COc1cc(N)c(Cl)cc1C(=O)NCC1C2CC3CC1CN(C3)C2 (stereo in doubt; 9c)	Adrenergic receptor alpha-1 (Homo sapiens, UniProt P35348+P25100+P35368)	IC50	> 10 µM
COc1cc(N)c(Cl)cc1C(=O)NC1C2CC3CC1CN(C3)C2 (stereo in doubt; 9b)	Adrenergic receptor alpha-1 (Homo sapiens, UniProt P35348+P25100+P35368)	IC50	> 10 µM
COc1cc(N)c(Cl)cc1C(=O)NC1CCN(CCCOc2ccc(F)cc2)CC1OC (stereo not given) [CISAPRIDE]	Adrenergic receptor alpha-1 (Homo sapiens, UniProt P35348+P25100+P35368)	IC50	0.03 µM

====

Target: Adrenergic receptor beta (Homo sapiens, UniProt P08588+P07550+P13945)
Assay: Concentration required for inhibition of beta adrenergic receptor
Type: protein assay
assay.endpoint: IC50

molecule	system.under.test	assay.endpoint	test.result
COc1cc(N)c(Cl)cc1C(=O)N[C@@H]1C2CC3CN(C2)CC31 (stereo not given in full)	Adrenergic receptor beta (Homo sapiens, UniProt P08588+P07550+P13945)	IC50	> 10 µM
COc1cc(N)c(Cl)cc1C(=O)NC1C2CC3CC1CN(C3)C2 (stereo in doubt; 9b)	Adrenergic receptor beta (Homo sapiens, UniProt P08588+P07550+P13945)	IC50	> 10 µM
COc1cc(N)c(Cl)cc1C(=O)NC1CCN(CCCOc2ccc(F)cc2)CC1OC (stereo not given) [CISAPRIDE]	Adrenergic receptor beta (Homo sapiens, UniProt P08588+P07550+P13945)	IC50	> 10 µM
COc1cc(N)c(Cl)cc1C(=O)NCC1C2CC3CC1CN(C3)C2 (stereo in doubt; 9c)	Adrenergic receptor beta (Homo sapiens, UniProt P08588+P07550+P13945)	IC50	> 10 µM
COc1cc(N)c(Cl)cc1C(=O)NC1C2CC3CC1CN(C3)C2 (stereo in doubt; 9a)	Adrenergic receptor beta (Homo sapiens, UniProt P08588+P07550+P13945)	IC50	> 10 µM
